Source: paper PMC3811480

Can you tell me Tmax for the items I'm about to list?
experiment notes: Exposure in mice after acute oral dosing (blood levels, UPLC-MS/MS)
Assay type: in vivo, BALB/c mice
settings: BALB/c, mouse, whole blood, 50 mg kg^−1 oral, read-out: time of maximum concentration in blood
Answers are plain numbers, in h.

O=[N+]([O-])c1cn2c(n1)OC[C@H](OCc1ccc(OC(F)(F)F)cc1)C2 [(R)-PA-824]    4

Field: next compound
Ask | Tell me the measured Tmax of O=[N+]([O-])c1cn2c(n1)OC[C@@H](OCc1ccc(OC(F)(F)F)cc1)C2 [(S)-PA-824, reference compound] , please.
Reply | 4
